All figures here come from patent US20240391948A1.

Give measured pIC50 for each item. Keep answers brief.
System: U937 cells (human monocytic cell line)
Assay: BzATP-induced IL-1β secretion inhibition in PMA-differentiated U937 cells
Assay type: cell-based
Settings: U-937, U937 cells differentiated with PMA, read-out: IL-1β production inhibition grade (IC50)
pIC50: −log10 of the molar value.

Task: Need pIC50 of C[C@H](CCC(=O)N1CCC[C@@H](S(=O)(=O)O)C1)[C@H]1CC[C@H]2[C@@H]3CC[C@@H]4CC(=O)CC[C@]4(C)[C@H]3CC[C@]12C , thanks.
Output: > 7.30

Task: Need pIC50 of CC[C@H]1[C@@H](O)[C@@H]2[C@H](C[C@H](O)[C@]3(C)[C@@H]([C@H](C)CCC(=O)N4CCC[C@@H](S(=O)(=O)O)C4)CC[C@@H]23)[C@@]2(C)CC[C@@H](O)C[C@@H]12 , thanks.
Output: 6.70 to 7.00

Task: Need pIC50 of CC(C)N(CCS(=O)(=O)O)C(=O)CC[C@@H](C)[C@H]1CC[C@H]2[C@@H]3[C@H](O)C[C@@H]4C[C@H](O)CC[C@]4(C)[C@H]3C[C@H](O)[C@]12C , thanks.
Output: > 7.30

Task: Need pIC50 of C[C@H](CCC(=O)N[C@@H]1CCCC[C@@H]1S(=O)(=O)O)[C@H]1CC[C@H]2[C@@H]3CC[C@@H]4C[C@H](O)CC[C@]4(C)[C@H]3CC[C@]12C , thanks.
Output: > 7.30

Task: Need pIC50 of CC[C@H]1[C@@H](O)[C@@H]2[C@H](CC[C@]3(C)[C@@H]([C@H](C)CCC(=O)N[C@H](Cc4ccccc4)CS(=O)(=O)O)CC[C@@H]23)[C@@]2(C)CC[C@@H](O)C[C@@H]12 , thanks.
Output: 7.00 to 7.30

Task: Need pIC50 of CC(C)N(CCS(=O)(=O)O)C(=O)CC[C@@H](C)[C@H]1CC[C@H]2[C@@H]3CC[C@@H]4CC(=O)CC[C@]4(C)[C@H]3CC[C@]12C , thanks.
Output: ≤ 6.70

Task: Need pIC50 of C[C@H](CCC(=O)NCCC(=O)O)[C@H]1CC[C@H]2[C@@H]3CC[C@@H]4CC(=O)CC[C@]4(C)[C@H]3CC[C@]12C , thanks.
Output: 6.70 to 7.00

Task: Need pIC50 of C[C@H](CCC(=O)N[C@H]1CCCC[C@H]1S(=O)(=O)O)[C@H]1CC[C@H]2[C@@H]3CC[C@@H]4C[C@H](O)CC[C@]4(C)[C@H]3CC[C@]12C , thanks.
Output: > 7.30

* * *

System: U937 cells (human monocytic cell line)
Test: Pam2CSK4-induced TNF-α secretion inhibition in PMA-differentiated U937 cells
Type: cell-based
Conditions: U-937, U937 cells differentiated with PMA, read-out: TNF-α production inhibition grade (IC50)
pIC50: −log10 of the molar value.
Readout Kind: pIC50

Task: Need pIC50 of C[C@H](CCC(=O)N(CCS(=O)(=O)O)C1CCOCC1)[C@H]1CC[C@H]2[C@@H]3CC[C@@H]4C[C@H](O)CC[C@]4(C)[C@H]3CC[C@]12C , thanks.
Output: 5.70 to 6.00

Task: Need pIC50 of C[C@H](CCC(=O)N[C@H]1CCCC[C@H]1S(=O)(=O)O)[C@H]1CC[C@H]2[C@@H]3CC[C@@H]4C[C@H](O)CC[C@]4(C)[C@H]3C[C@H](O)[C@]12C , thanks.
Output: 6.00 to 6.30

Task: Need pIC50 of C[C@H](CCC(=O)N(CCS(=O)(=O)O)c1ccccc1)[C@H]1CC[C@H]2[C@@H]3CC[C@@H]4C[C@H](O)CC[C@]4(C)[C@H]3C[C@H](O)[C@]12C , thanks.
Output: 5.70 to 6.00
